Target: Cdk2(T182C) (C177A) (Homo sapiens, UniProt P24941, C177A/T182C)
Construct: poly-histidine; made in house; host or cells: E. coli
Experiment: Kinetic thiol consumption assay with Cdk2 mutant T182C
Format: binding
Conditions: Protein: Cdk2; cysteine position T182C; additional mutation C177A; in h^-1

# compound, Rate constant with Cdk2 T182C
measured = [
    ("C=CC(=O)N1CCN(c2ccccc2[N+](=O)[O-])CC1 [EL-1134]", 0.06354),
    ("C#CCN1CCCN(C(=O)C=C)CC1 [CA-196]", 0.009935),
    ("C=CC(=O)N1CC2CC2C1 (stereo not drawn) [CA-211]", 0.02043),
    ("C=CC(=O)Nc1cccc(C(F)(F)F)c1 [BN-80]", 0.1201),
    ("C=CC(=O)NCc1ccc(OC)cc1 [BN-63]", 0.001476),
    ("C=CC(=O)N1CCC(c2nnc3n2CCC3)CC1 [CA-106]", 0.01571),
    ("C=CC(=O)NC(C)c1cc(OC)c(OC)c(OC)c1 (stereo not drawn) [EL-1101]", 0.009691),
    ("O=S1(=O)C=CC(Br)C1 (stereo not drawn) [EN010]", 2.544),
    ("C=CC(=O)Nc1ccc2nc(C)[nH]c2c1 [EL-1109]", 0.04531),
    ("C=CC(=O)NCCN1CCOCC1 [BN-346]", 0.000862),
    ("C=CC(=O)N1CCc2sccc2C1c1cccs1 (stereo not drawn) [CA-056]", 0.3197),
    ("C=CC(=O)N1CCC2(CC1)CC2C(=O)OC (stereo not drawn) [CA-039]", 0.0029),
    ("C=CC(=O)N(Cc1ccco1)Cc1ccco1 [CA-099/153]", 0.4326),
    ("C=CC(=O)NCC1(NC(=O)OC(C)(C)C)CCCCC1 [EL-1143]", 0.1517),
    ("CN(C#N)Cc1ccccc1 [EN009]", 0.006898),
    ("C=CC(=O)N1CC(n2cccn2)C1 [CA-173]", 0.04347),
    ("C=CC(=O)N(C1CC1)C1CCCCC1C1CCCCC1 (stereo not drawn) [CA-081/240]", 0.01943),
    ("C=CC(=O)NCC1CCCN1S(=O)(=O)c1ccc(C(=O)O)cc1 (stereo not drawn) [BN122]", 0.01499),
    ("C=CC(=O)NC1C[C@@H](C(=C)C)CC=C1C (stereo partly drawn) [EL-1074]", 0.01875),
    ("Cn1cc(S(=O)(=O)N2CCOCC2)cc1C(=O)NC(=O)CCl [EN002]", 0.01298),
    ("C=CC(=O)Nc1nc2cc3c(cc2s1)OC(F)(F)O3 [CA-142]", 0.2609),
    ("C=CC(=O)N(C)C1C2CCOC2C1(C)C (stereo not drawn) [CA-182]", 0.02065),
    ("C=CC(=O)N1CCC2(CC1)NC(=O)N(C)C2=O [CA-046]", 0.009705),
    ("C=CC(=O)N(CC(=O)N1CCCC1)CC1CCCO1 (stereo not drawn) [CA-080/239]", 0.01162),
]

* * *

Target: Cdk2(C177A, F80C) (Homo sapiens, UniProt P24941, C177A/F80C)
Construct: poly-histidine; made in house; host or cells: E. coli
Test: Kinetic thiol consumption assay with Cdk2 mutant F80C, incl. kobs versus concentration (Kd, k2)
Type: binding
Settings: Protein: Cdk2; cysteine position F80C; additional mutation C177A; in h^-1
Just so you know, the groups by Rate constant with Cdk2 F80C go like this: lo = under 0.006, mid = from 0.006 up to 0.04, hi = 0.04 and over

# compound, class_name
records = [
    ("C=CC(=O)N1CCCN2C(=O)CCC12c1ccc(OC)cc1 (centres unmarked)", "lo"),
    ("C=CC(=O)NC1C[C@@H](C(=C)C)CC=C1C (some centres unmarked)", "lo"),
    ("C=CC(=O)NCc1ccc(C(=O)OC)cc1", "mid"),
    ("C=CC(=O)N1CC(CCN2CCCC2=O)c2ccccc21 (centres unmarked)", "hi"),
    ("C=CC(=O)NCCN1CCOCC1", "lo"),
    ("C=CC(=O)N1CCc2sccc2C1c1cccs1 (centres unmarked)", "hi"),
    ("C=CC(=O)NCC1CCCN1S(=O)(=O)c1ccc(C(=O)O)cc1 (centres unmarked)", "lo"),
    ("C=CC(=O)N1CCC(c2nc3ccccc3[nH]2)CC1", "lo"),
    ("C=CC(=O)N1CC(OCc2cccc3ccccc23)C1", "hi"),
    ("C=CC(=O)Nc1ccc(C(=O)NC2CCCC2)cc1", "hi"),
    ("C=CC(=O)N(c1ccc2c(c1)OCCO2)C1CC1", "mid"),
    ("C=CC(=O)Nc1cccc2ncccc12", "hi"),
    ("C=CC(=O)N1CCn2c(C(=O)NC3CC3)ccc2C1C (centres unmarked)", "mid"),
    ("C=CC(=O)N(c1cccc2ncccc12)C1CCC1", "mid"),
    ("C=CC(=O)N1CCN(c2cccc3cccnc23)CC1", "mid"),
    ("C=CC(=O)N1CC2(CCC2)c2c(F)cccc21", "hi"),
    ("C=CC(=O)Nc1cccc(-c2nnnn2C2CC2)c1", "hi"),
    ("C=CC(=O)N1CCCCCC1C/C=C/c1ccccc1 (centres unmarked)", "mid"),
    ("C=CC(=O)NCCNC(=O)C1CCCN1S(=O)(=O)c1ccccc1 (centres unmarked)", "lo"),
    ("C=CC(=O)N1CCN(C(=O)OCC)CC1c1cccs1 (centres unmarked)", "mid"),
    ("C=CC(=O)N1CCn2c(Cc3ccccc3)nnc2C1", "mid"),
    ("C=CC(=O)N1CC2CN(Cc3ccccc3)CC2C1 (centres unmarked)", "lo"),
]

* * *

Molecular target: Cdk2(S181C) (C177A) (Homo sapiens, UniProt P24941, C177A/S181C)
Construct: poly-histidine; made in house; host or cells: E. coli
Assay: Kinetic thiol consumption assay with Cdk2 mutant S181C
Assay type: binding
Conditions: Protein: Cdk2; cysteine position S181C; additional mutation C177A; in h^-1
recorded_metric: Rate constant with Cdk2 S181C

# compound, measured
measured = [
    ("C=CC(=O)NCCCN(C(=O)C1CCC1)C1CC1 [CA-060]", 0.004014),
    ("C=CC(=O)N1CC2(CCC2)c2c(F)cccc21 [CA-188]", 0.04931),
    ("C=CC(=O)N(C)C1C2CCOC2C1(C)C (stereo not drawn) [CA-182]", 0.009074),
    ("C=CC(=O)N1CCCCCC1c1ccc(N(C)C)cc1 (stereo not drawn) [EL-1140]", 0.005455),
    ("C=CC(=O)N(Cc1ccco1)C12CC3CC(CC(C3)C1)C2 [CA-157]", 0.007651),
    ("O=C(CCl)NCCc1c[nH]c2ccccc12 [EN005]", 0.01491),
    ("C=CC(=O)NC1(c2noc(C)n2)CCCCCC1 [CA-162]", 0.007555),
    ("C=CC(=O)NCc1ccc(OC)cc1 [BN-63]", 0.0009),
    ("C=CC(=O)NCc1ccc(C(=O)OC)cc1 [BN-65]", 0.001226),
    ("C=CC(=O)NC1(c2noc(C3CC3)n2)CCCC1 [CA-044]", 0.0009239),
    ("O=C(CCl)N1CCSc2ccccc21 [EN004]", 0.03286),
    ("C=CC(=O)N1CC(CCN2CCCC2=O)c2ccccc21 (stereo not drawn) [CA-089]", 0.02699),
]

* * *

We begin with a simple list: items and their reported Rate enhancement, Cdk2 R122C.
Target: Cdk2(R122C) (C177A) (Homo sapiens, UniProt P24941, C177A/R122C)
Construct: poly-histidine; made in house; host or cells: E. coli
Assay: Kinetic thiol consumption assay with Cdk2 mutant R122C
Assay type: binding
Set-up: key: rate constant with Cdk2 ÷ rate constant with model thiol (fold)
Conditions: Cdk2 R122C, additional mutation C177A
Experimental: To wells containing 150 μL thiol (Cdk2 or model thiol) (5 μM) in degassed phosphate buffer (pH 8) was added immobilized TCEP beads (2% v/v). After incubation of the fluorescence plates for 1 hour at room temperature, fluorescence measurements (excitation/emission of 380/470 nm) were taken on a PerkinElmer EnVision multilabel plate reader and processed with EnVision Workstation version 1.12. Fluorescence measurements were normalized against a DMSO/thiol only control and plotted against time. […]

# compound, Rate enhancement, Cdk2 R122C
measured = [
    ("C=CC(=O)N1CCC(c2nnc3n2CCC3)CC1 [CA-106]", 0.2819),
    ("C=CC(=O)N1CCn2cccc2C1c1ccccc1 (stereo not drawn) [CA-187]", 0.4465),
    ("C=CC(=O)N1CC(OCc2cccc3ccccc23)C1 [CA-203]", 3.287),
    ("C=CC(=O)Nc1ccccc1C#N [EL-1178]", 0.491),
    ("C=CC(=O)NC1CCN(Cc2ccccc2)CC1 [BN-78]", 0.2392),
    ("C=CC(=O)N1CC(n2cccn2)C1 [CA-173]", 0.3379),
    ("C=CC(=O)Nc1sc2c(c1C(=O)NC1CC1)CCC2 [CA-155]", 1.407),
    ("C=CC(=O)N(c1cccc2ncccc12)C1CCC1 [CA-032/228]", 1.534),
    ("C=CC(=O)N1CCc2cc(-c3cccc(F)c3)ccc21 [CA-042]", 0.1215),
    ("C=CC(=O)N1CCN(c2cc(N3CCOCC3)ncn2)CC1 [CA-179]", 0.6453),
    ("C=CC(=O)Nc1nc2cc3c(cc2s1)OC(F)(F)O3 [CA-142]", 0.1319),
    ("C=CC(=O)N1CCN(C(=O)OCC)CC1c1cccs1 (stereo not drawn) [EL-1121]", 0.2677),
    ("C=CC(=O)Nc1cccc(-c2nnnn2C2CC2)c1 [CA-057]", 1.176),
    ("C=CC(=O)NC1c2ccccc2Oc2ccccc21 [CA-171]", 0.2126),
    ("C=CC(=O)NCc1ccc(C(=O)OC)cc1 [BN-65]", 0),
    ("C=CC(=O)N1CCCCCC1c1cccs1 (stereo not drawn) [EL-1063]", 0.7319),
    ("C=CC(=O)Nc1nc2ccccc2n1CCc1ccccn1 [CA-144]", 0.9491),
    ("C=CC(=O)NC(C)c1cc(OC)c(OC)c(OC)c1 (stereo not drawn) [EL-1101]", 0.3078),
    ("C=CC(=O)Nc1ccc2nc(C)[nH]c2c1 [EL-1109]", 0.7255),
    ("C=CC(=O)NCC1CN(C2CC2)CCO1 (stereo not drawn) [CA-038]", 0.3691),
    ("C=CC(=O)Nc1cccc(C(=O)c2ccccc2)c1 [CA-218]", 0.6834),
    ("C=CC(=O)N1CCc2sccc2C1c1cccs1 (stereo not drawn) [CA-056]", 0.7819),
    ("C=CC(=O)N(Cc1ccco1)Cc1cc2cc(C)ccc2o1 [CA-178]", 1.616),
    ("C=CC(=O)N1CCC2(CC1)NC(=O)N(C)C2=O [CA-046]", 0.2397),
]

From: patent US11415579B2
